- measured target: GABA-A receptor; alpha-1/beta-3/gamma-2 (Homo sapiens, UniProt P14867+P18507+P28472)
- Sequence (P14867 whole entry): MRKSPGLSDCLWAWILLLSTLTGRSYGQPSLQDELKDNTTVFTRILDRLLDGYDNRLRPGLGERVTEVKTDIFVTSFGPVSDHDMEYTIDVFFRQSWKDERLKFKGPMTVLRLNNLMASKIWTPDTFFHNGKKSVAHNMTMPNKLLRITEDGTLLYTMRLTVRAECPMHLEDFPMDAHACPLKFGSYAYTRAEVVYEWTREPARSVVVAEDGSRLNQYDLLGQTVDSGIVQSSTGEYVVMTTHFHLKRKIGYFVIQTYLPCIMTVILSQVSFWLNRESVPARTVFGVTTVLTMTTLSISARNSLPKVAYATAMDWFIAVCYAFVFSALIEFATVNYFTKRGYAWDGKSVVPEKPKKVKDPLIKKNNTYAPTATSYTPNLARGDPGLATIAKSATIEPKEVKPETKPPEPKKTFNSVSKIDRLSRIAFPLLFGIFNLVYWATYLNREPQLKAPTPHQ
- Sequence (P18507 whole entry): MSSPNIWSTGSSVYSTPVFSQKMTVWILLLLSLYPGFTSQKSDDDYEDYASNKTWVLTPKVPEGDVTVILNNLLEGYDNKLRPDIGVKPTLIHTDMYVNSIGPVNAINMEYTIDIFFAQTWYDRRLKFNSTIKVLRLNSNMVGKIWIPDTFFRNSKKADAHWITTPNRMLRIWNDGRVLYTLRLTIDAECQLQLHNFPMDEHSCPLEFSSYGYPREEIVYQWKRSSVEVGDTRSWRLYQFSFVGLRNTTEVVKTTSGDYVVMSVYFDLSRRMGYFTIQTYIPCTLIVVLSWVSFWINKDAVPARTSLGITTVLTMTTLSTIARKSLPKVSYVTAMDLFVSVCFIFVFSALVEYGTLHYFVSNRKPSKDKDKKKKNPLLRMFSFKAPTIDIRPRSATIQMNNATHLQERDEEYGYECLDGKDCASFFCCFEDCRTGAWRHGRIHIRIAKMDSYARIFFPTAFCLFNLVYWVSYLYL
- Sequence (P28472 whole entry): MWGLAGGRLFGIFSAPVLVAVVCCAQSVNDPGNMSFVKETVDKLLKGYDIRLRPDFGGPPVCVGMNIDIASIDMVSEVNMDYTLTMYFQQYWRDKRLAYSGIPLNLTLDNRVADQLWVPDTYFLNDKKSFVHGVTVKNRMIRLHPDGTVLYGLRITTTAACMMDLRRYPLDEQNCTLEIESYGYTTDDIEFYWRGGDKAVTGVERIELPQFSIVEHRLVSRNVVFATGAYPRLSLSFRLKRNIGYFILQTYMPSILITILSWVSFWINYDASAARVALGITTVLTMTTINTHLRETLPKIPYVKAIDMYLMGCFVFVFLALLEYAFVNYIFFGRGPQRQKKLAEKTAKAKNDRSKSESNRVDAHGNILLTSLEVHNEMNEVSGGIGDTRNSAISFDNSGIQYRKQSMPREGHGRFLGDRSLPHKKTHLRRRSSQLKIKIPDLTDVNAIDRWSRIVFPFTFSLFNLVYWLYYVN
- test name: Inhibition of [3H]Ro-151788 binding to recombinant human gamma-aminobutyric-acid A receptor alpha-1-beta-3-gamma-2 subtype expressed in L (tk-) cells
Response field class: enum, chosen by comparing Ki against low = under 70 nM, medium = from 70 nM up to 200 nM, high = 200 nM and over

> print(dat)
                                   compound  class.name
1  c1ccc(-c2nnc3c4c(c(OCn5cccn5)nn23)C2CCC4CC2)cc1      medium

q: Where would Cc1nnc2ccc(-c3cccc(C(F)(F)F)c3)nn12 [CI-218872] land among the classes by reported Ki?
a: low

q: Where would Cc1csc(COc2nn3c(-c4ccccc4)nnc3c3c2C2CCC3CC2)n1 land among the classes by reported Ki?
a: medium

q: Where would CCCn1cnc(COc2nn3c(-c4ccccc4)nnc3c3c2C2CCC3CC2)n1 land among the classes by reported Ki?
a: medium

q: Where would c1ccc(-c2nnc3c4c(c(OCc5cccnc5)nn23)C2CCC4CC2)cc1 land among the classes by reported Ki?
a: medium

q: Where would Cc1c[nH]c(COc2nn3c(-c4ccccc4)nnc3c3c2C2CCC3CC2)n1 land among the classes by reported Ki?
a: medium
